Exercise: for every item that follows, state its recorded log10(IC50).
# target-or-test-system: PAR4 (Homo sapiens)
# Construct: 60 μL of washed platelets (Tyrodes buffer containing 0.1% BSA); endogenous in cells
# Sequence (Q96RI0 18-385): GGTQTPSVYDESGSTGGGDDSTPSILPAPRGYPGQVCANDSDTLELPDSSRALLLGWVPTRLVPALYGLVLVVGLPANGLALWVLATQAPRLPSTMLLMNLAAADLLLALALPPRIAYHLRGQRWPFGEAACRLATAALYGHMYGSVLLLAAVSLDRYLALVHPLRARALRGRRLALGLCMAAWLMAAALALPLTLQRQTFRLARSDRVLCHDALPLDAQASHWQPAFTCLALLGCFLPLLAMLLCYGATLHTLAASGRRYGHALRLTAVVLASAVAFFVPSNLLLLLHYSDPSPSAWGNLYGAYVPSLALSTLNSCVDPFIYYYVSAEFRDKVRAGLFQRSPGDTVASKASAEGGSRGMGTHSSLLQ
# method-description: PAC-1 binding assay, washed platelets stimulated with PAR-4-AP (flow cytometry)
# experimental-setup: PAR-4-AP stimulation, dose response curve
A value of 2 here means IC50 of 100 in nM, since values are log10.

Please fill in: log10(IC50) reported for `COc1nn2cc(-c3cc(-c4ccc(Cl)cc4)no3)nc2s1` = 3.29

For this compound ( `COc1nn2cc(-c3ccc(-c4ccccc4)s3)nc2s1` ), measured log10(IC50) is 0.87

Input `COC(=O)c1[nH]c2ccc(OC(F)(F)F)cc2c1-c1cn2nc(OC)sc2n1` . Output log10(IC50): 3.32

Short answer for `COc1nn2cc(-c3sc(-c4ccccc4)nc3C)nc2s1` : log10(IC50) was 1.84

In plain terms, `COc1nn2cc(-c3csc4ccccc34)nc2s1` has a documented log10(IC50) of 2.66

Form field log10(IC50), entry `COc1nn2cc(-c3cnn(-c4ccccc4)c3C)nc2s1` : 3.18
